Reference source: paper PMC10082216

- Measurement Description: TD-6450 phase I clinical study (SAD/MAD): pharmacokinetics
- Type: in vivo, human
- Condition Description: male, human, plasma, oral, 0.5 mg, Male subjects, SAD arm NCT02022306, Dose 0.50, 120 Hours; read-out: Concentration
Test Readout: concentration at 120 h (ng/mL)
Numbers only here, please. The scale is ng/mL.

The reported concentration at 120 h of the molecule CNC(=O)N1C[C@@H](C)N(c2ccc(C(=O)Nc3ccc(-c4ccc(-c5c[nH]c([C@@H]6CCCN6C(=O)[C@@H](NC(=O)OC)C(C)C)n5)cc4)c(OC(F)(F)F)c3)cn2)C[C@@H]1C was 0

----------
- Measurement Description: TD-6450 phase I clinical study (SAD/MAD): pharmacokinetics
- Type: in vivo, human
- Condition Description: female, human, plasma, oral, 30 mg, Female subjects, SAD arm NCT02022306, Dose 30.00, 168 Hours; read-out: Concentration
Test Readout: concentration at 168 h (ng/mL)
Return type: number; implicit unit ng/mL.

compound CNC(=O)N1C[C@@H](C)N(c2ccc(C(=O)Nc3ccc(-c4ccc(-c5c[nH]c([C@@H]6CCCN6C(=O)[C@@H](NC(=O)OC)C(C)C)n5)cc4)c(OC(F)(F)F)c3)cn2)C[C@@H]1C , concentration at 168 h observed: 5.12

----------
- Measurement Description: TD-6450 phase I clinical study (SAD/MAD): pharmacokinetics
- Type: in vivo, human
- Condition Description: male, human, plasma, oral, 5 mg, Male subjects, SAD arm NCT02022306, Dose 5.00, 15 Minutes; read-out: Concentration
Test Readout: concentration at 15 min

Input CNC(=O)N1C[C@@H](C)N(c2ccc(C(=O)Nc3ccc(-c4ccc(-c5c[nH]c([C@@H]6CCCN6C(=O)[C@@H](NC(=O)OC)C(C)C)n5)cc4)c(OC(F)(F)F)c3)cn2)C[C@@H]1C . Output concentration at 15 min: 0 ng/mL

----------
- Measurement Description: TD-6450 phase I clinical study (SAD/MAD): pharmacokinetics
- Type: in vivo, human
- Condition Description: male, human, in vivo, TD-6450 concentration
Test Readout: concentration at 6 h (ng/mL)
Record the value in ng/mL, omitting the unit from your answer.

So, CNC(=O)N1C[C@@H](C)N(c2ccc(C(=O)Nc3ccc(-c4ccc(-c5c[nH]c([C@@H]6CCCN6C(=O)[C@@H](NC(=O)OC)C(C)C)n5)cc4)c(OC(F)(F)F)c3)cn2)C[C@@H]1C [TD-6450] ? Its concentration at 6 h was 165

----------
- Measurement Description: TD-6450 phase I clinical study (SAD/MAD): pharmacokinetics
- Assay type: in vivo, human
- Condition Description: both sexes, human, plasma, oral, 120 mg, MAD 120 mg, day 14; read-out: Cmax Mean ± SD, D14
Test Readout: Cmax at 14 day
Form field: result (number plus unit)

Cmax at 14 day for CNC(=O)N1C[C@@H](C)N(c2ccc(C(=O)Nc3ccc(-c4ccc(-c5c[nH]c([C@@H]6CCCN6C(=O)[C@@H](NC(=O)OC)C(C)C)n5)cc4)c(OC(F)(F)F)c3)cn2)C[C@@H]1C is 1010 nM

----------
- Measurement Description: TD-6450 phase I clinical study (SAD/MAD): pharmacokinetics
- Format: in vivo, human
- Condition Description: both sexes, human, plasma, oral, 30 mg, SAD 30 mg; read-out: t1/2 Mean ± SD (converted)
Test Readout: half-life (h)
Number only, in h; omit the unit.

Please fill in: half-life reported for CNC(=O)N1C[C@@H](C)N(c2ccc(C(=O)Nc3ccc(-c4ccc(-c5c[nH]c([C@@H]6CCCN6C(=O)[C@@H](NC(=O)OC)C(C)C)n5)cc4)c(OC(F)(F)F)c3)cn2)C[C@@H]1C = 66.9
